- target_system: recombinant human Pim-2 (Homo sapiens, UniProt Q9P1W9)
- Sequence (Q9P1W9 whole entry): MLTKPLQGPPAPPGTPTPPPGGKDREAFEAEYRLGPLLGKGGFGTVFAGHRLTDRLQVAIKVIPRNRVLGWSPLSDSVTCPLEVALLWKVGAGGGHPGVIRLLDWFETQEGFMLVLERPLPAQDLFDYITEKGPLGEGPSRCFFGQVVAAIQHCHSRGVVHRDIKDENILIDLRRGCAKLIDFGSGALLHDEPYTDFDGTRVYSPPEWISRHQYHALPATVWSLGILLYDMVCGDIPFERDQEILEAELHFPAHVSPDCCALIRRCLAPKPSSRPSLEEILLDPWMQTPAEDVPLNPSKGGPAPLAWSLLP
- experiment: PIM-2 assay (33P-ATP, filter plate)
- Assay type: biochemical
- cond: read-out: PIM2: IC50
reported_metric: IC50

Which IC50 value is on record for "NC(=O)c1cnn2c1nc(Nc1ccccc1Cl)c1ccccc12" ?
< 1000 nM

----------
- target_system: recombinant Pim-1 (Homo sapiens, UniProt P11309)
- Sequence (P11309 whole entry): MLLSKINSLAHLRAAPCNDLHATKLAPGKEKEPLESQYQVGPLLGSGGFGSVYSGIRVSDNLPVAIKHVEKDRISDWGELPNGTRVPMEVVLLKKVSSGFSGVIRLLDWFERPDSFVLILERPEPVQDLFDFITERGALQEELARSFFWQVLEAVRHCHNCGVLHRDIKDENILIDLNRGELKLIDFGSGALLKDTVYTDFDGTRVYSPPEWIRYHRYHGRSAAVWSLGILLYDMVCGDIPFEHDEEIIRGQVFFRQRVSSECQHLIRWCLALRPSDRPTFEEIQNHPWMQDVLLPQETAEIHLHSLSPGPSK
- experiment: Pim-1 assay (33P-ATP, filter plate)
- cond: read-out: PIM1: IC50
reported_metric: IC50

Which IC50 value is on record for "NC(=O)c1cnn2c1nc(Nc1ccccc1Cl)c1ccccc12" ?
< 1000 nM

// provenance: patent US20110065712A1
